CC50 at 24 h values by entry
test: Phototoxicity against human HaCaT cells incubated for 6 hrs followed by UV irradiation at 0.25 J/cm'2 measured after 24 hrs by MTT assay; assay type: cell-based; details: read-out: LD50
parameter_measured: CC50 at 24 h (µM)

cpd_smiles	quantity_unit	value_measured
COc1cc(C#Cc2ccc(C#Cc3cc(OC)c(C#CCO[C@@H]4O[C@H](CO)[C@@H](O)[C@H](O)[C@H]4O)cc3OC)c(N(C)C)c2)c(OC)cc1C#CCO[C@@H]1O[C@H](CO)[C@@H](O)[C@H](O)[C@H]1O	µM	3
COc1cc(C#Cc2ccc(C#CCO[C@@H]3O[C@H](CO)[C@@H](O)[C@H](O)[C@H]3O)cc2N(C)C)c(OC)cc1C#Cc1ccc(C#CCO[C@@H]2O[C@H](CO)[C@@H](O)[C@H](O)[C@H]2O)cc1N(C)C	µM	3

====

experiment: Dark toxicity against human Hep2 cells assessed as cell survival at 3 uM incubated for 6 hrs measured after 24 hrs by MTT assay; type: cell-based, HEp-2; details: read-out: Survival
# maps each entry to its viability at 6 h, 3 µM
parameter_measured: viability at 6 h, 3 µM (%)

cpd_smiles	parameter_measured	value_measured
COc1cc(C#Cc2ccc(C#CCO[C@@H]3O[C@H](CO)[C@@H](O)[C@H](O)[C@H]3O)cc2N(C)C)c(OC)cc1C#Cc1ccc(C#CCO[C@@H]2O[C@H](CO)[C@@H](O)[C@H](O)[C@H]2O)cc1N(C)C	viability at 6 h, 3 µM	97.7
COc1cc(C#Cc2ccc(C#Cc3cc(OC)c(C#CCO[C@@H]4O[C@H](CO)[C@@H](O)[C@H](O)[C@H]4O)cc3OC)c(N(C)C)c2)c(OC)cc1C#CCO[C@@H]1O[C@H](CO)[C@@H](O)[C@H](O)[C@H]1O	viability at 6 h, 3 µM	97.2

====

assay: Dark toxicity against human HaCaT cells assessed as cell survival at 3 uM incubated for 6 hrs measured after 24 hrs by MTT assay; assay type: cell-based; details: read-out: Survival
# key: entry, value: viability at 6 h, 3 µM

cpd_smiles	viability at 6 h, 3 µM [%]
COc1cc(C#Cc2ccc(C#CCO[C@@H]3O[C@H](CO)[C@@H](O)[C@H](O)[C@H]3O)cc2N(C)C)c(OC)cc1C#Cc1ccc(C#CCO[C@@H]2O[C@H](CO)[C@@H](O)[C@H](O)[C@H]2O)cc1N(C)C	91.5
COc1cc(C#Cc2ccc(C#Cc3cc(OC)c(C#CCO[C@@H]4O[C@H](CO)[C@@H](O)[C@H](O)[C@H]4O)cc3OC)c(N(C)C)c2)c(OC)cc1C#CCO[C@@H]1O[C@H](CO)[C@@H](O)[C@H](O)[C@H]1O	92.4

====

assay: Dark toxicity against human HaCaT cells assessed as cell survival at 10 uM incubated for 6 hrs measured after 24 hrs by MTT assay; type: cell-based; conditions: read-out: Survival

cpd_smiles	viability at 6 h, 10 µM
COc1cc(C#Cc2ccc(C#CCO[C@@H]3O[C@H](CO)[C@@H](O)[C@H](O)[C@H]3O)cc2N(C)C)c(OC)cc1C#Cc1ccc(C#CCO[C@@H]2O[C@H](CO)[C@@H](O)[C@H](O)[C@H]2O)cc1N(C)C	70.2%
COc1cc(C#Cc2ccc(C#Cc3cc(OC)c(C#CCO[C@@H]4O[C@H](CO)[C@@H](O)[C@H](O)[C@H]4O)cc3OC)c(N(C)C)c2)c(OC)cc1C#CCO[C@@H]1O[C@H](CO)[C@@H](O)[C@H](O)[C@H]1O	71.5%

====

The following molecules are shown together with reported viability at 6 h, 5 µM values.
assay: Dark toxicity against human HaCaT cells assessed as cell survival at 5 uM incubated for 6 hrs measured after 24 hrs by MTT assay; format: cell-based; conditions: read-out: Survival

cpd_smiles	viability at 6 h, 5 µM
COc1cc(C#Cc2ccc(C#Cc3cc(OC)c(C#CCO[C@@H]4O[C@H](CO)[C@@H](O)[C@H](O)[C@H]4O)cc3OC)c(N(C)C)c2)c(OC)cc1C#CCO[C@@H]1O[C@H](CO)[C@@H](O)[C@H](O)[C@H]1O	91.4%
COc1cc(C#Cc2ccc(C#CCO[C@@H]3O[C@H](CO)[C@@H](O)[C@H](O)[C@H]3O)cc2N(C)C)c(OC)cc1C#Cc1ccc(C#CCO[C@@H]2O[C@H](CO)[C@@H](O)[C@H](O)[C@H]2O)cc1N(C)C	90.9%

====

Recorded viability at 6 h, 5 µM values for a group of molecules are listed next.
assay: Dark toxicity against human Hep2 cells assessed as cell survival at 5 uM incubated for 6 hrs measured after 24 hrs by MTT assay; type: cell-based, HEp-2; details: read-out: Survival
parameter_measured: viability at 6 h, 5 µM (%)

cpd_smiles	parameter_measured	value_measured
COc1cc(C#Cc2ccc(C#Cc3cc(OC)c(C#CCO[C@@H]4O[C@H](CO)[C@@H](O)[C@H](O)[C@H]4O)cc3OC)c(N(C)C)c2)c(OC)cc1C#CCO[C@@H]1O[C@H](CO)[C@@H](O)[C@H](O)[C@H]1O	viability at 6 h, 5 µM	96.3
COc1cc(C#Cc2ccc(C#CCO[C@@H]3O[C@H](CO)[C@@H](O)[C@H](O)[C@H]3O)cc2N(C)C)c(OC)cc1C#Cc1ccc(C#CCO[C@@H]2O[C@H](CO)[C@@H](O)[C@H](O)[C@H]2O)cc1N(C)C	viability at 6 h, 5 µM	95.7
